# Study target: human CCR8 (human, UniProt P51685 1-355)
# Sequence (P51685 whole entry): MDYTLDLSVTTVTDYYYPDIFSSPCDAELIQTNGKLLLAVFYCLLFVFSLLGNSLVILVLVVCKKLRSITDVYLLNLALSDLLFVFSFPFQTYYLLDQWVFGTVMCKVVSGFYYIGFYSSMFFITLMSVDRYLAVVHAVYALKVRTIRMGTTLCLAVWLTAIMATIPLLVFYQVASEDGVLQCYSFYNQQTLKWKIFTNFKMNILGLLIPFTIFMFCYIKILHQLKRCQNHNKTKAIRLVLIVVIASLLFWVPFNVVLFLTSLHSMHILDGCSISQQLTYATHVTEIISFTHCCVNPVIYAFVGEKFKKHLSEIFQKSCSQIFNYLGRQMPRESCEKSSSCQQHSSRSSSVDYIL
# Test name: cell-based or functional assay
Measured parameter: Imax(%), blocking activity
Answers are plain numbers, in %.

Data request: Sample hu305-4F-2l-AF (antibody, V domains shown, also called hu305-4F-21-AF; hu305-4F-21) VH: QVQLQESGPGLVKPSQTLSLTCTVSGFSLAVYGVHWVRQPPGKGLEWLGVIWRGGTTDYNPSLKSRLTFSKDSSKSQVSLKLSSVTAADTAVYYCAKNRVTTVVAPNFYAMDYWGQGTLVTVSS VL: DIVMTQSPDSLAVSLGERVTMNCKSSQSLLYSGNQKNYLAWYQQKPGQSPKLLIYWASTRKSGVPDRFSGSGSGTDFTLTISSLQAEDVAAYYCQQYYTYPLTFGQGTRLEIK — what was its Imax(%), blocking activity?
Data returned: 78
